Molecular target: Nicotinamide N-methyltransferase (Mus musculus)
Sequence (O55239 whole entry): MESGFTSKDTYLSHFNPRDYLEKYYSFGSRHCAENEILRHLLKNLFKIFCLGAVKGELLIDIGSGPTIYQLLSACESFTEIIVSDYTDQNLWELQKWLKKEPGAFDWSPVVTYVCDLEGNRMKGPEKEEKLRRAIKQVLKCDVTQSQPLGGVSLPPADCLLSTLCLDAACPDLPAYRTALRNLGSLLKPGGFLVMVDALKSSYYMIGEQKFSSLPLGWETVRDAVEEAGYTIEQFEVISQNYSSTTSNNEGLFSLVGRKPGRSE
Assay: Inhibition of mouse recombinant NNMT using nicotinamide and SAM as substrate assessed as reduction in 1-methyl-nicotinamide formation incubated for 22 to 24 hrs by RapidFire Mass spectroscopy
Numbered stars: 1 amine (or outer) side, 2 acyl side, 3 side chain; on linkers, the order of the positions; unused ones are H or OH. Bridge positions count the residues as written; N and C are the ends. Square brackets hold non-standard residues; d marks the D form. Peptide text beside a SMILES is read from it. Bip(4'-CONH2) = NC(=O)c1ccc(-c2ccc(C[C@H](N)C(=O)O)cc2)cc1; Pro(trans-4-Ph) = O=C(O)[C@@H]1C[C@@H](c2ccccc2)CN1; Pro(cis-4-CF3) = O=C(O)[C@@H]1C[C@H](C(F)(F)F)CN1; X1 = O=C([C@@H]1C[C@@H](C(F)(F)F)CN1[*:1])[*:2]; Phe(4-CONH2) = NC(=O)c1ccc(C[C@H](N)C(=O)O)cc1; Bip = N[C@@H](Cc1ccc(-c2ccccc2)cc1)C(=O)O; Pro(4,4-F2) = O=C(O)[C@@H]1CC(F)(F)CN1; NHCH2CH2SCH2CO = O=C(CSCCN[*:1])[*:2]; Lys(Me2) = CN(C)CCCC[C@H](N)C(=O)O; NMeF = CN[C@@H](Cc1ccccc1)C(=O)O; tBuAla = CC(C)(C)C[C@H](N)C(=O)O; Tic = O=C(O)[C@@H]1Cc2ccccc2CN1; NMeC = CN[C@@H](CS)C(=O)O
Quick reference: IC50 of the listed items.
Unit nM implied. Number only.

Recorded IC50, per entry:
INSERT INTO results (compound, numeric_result) VALUES
  ('CC(C)C[C@@H]1NC(=O)[C@@H]2CCCN2C(=O)[C@H](Cc2ccccc2)NC(=O)CSC[C@@H](C(N)=O)NC(=O)[C@H](Cc2ccc(C(N)=O)cc2)NC(=O)[C@@H]2Cc3ccccc3CN2C(=O)[C@@H]2C[C@H](C(F)(F)F)CN2C(=O)[C@H](CCCCN)NC1=O ({CH2CO}-FPLK[Pro(cis-4-CF3)][Tic][Phe(4-CONH2)]C-NH2; thioether N-8)', 1340),
  ('CC(C)C[C@@H]1NC(=O)[C@@H]2CCCN2C(=O)[C@H](Cc2ccccc2)NC(=O)CSC[C@@H](C(N)=O)NC(=O)[C@H](Cc2ccc(-c3ccccc3)cc2)NC(=O)[C@@H]2Cc3ccccc3CN2C(=O)[C@@H]2CCCN2C(=O)[C@H](CCCCN)NC1=O ({CH2CO}-FPLKP[Tic][Bip]C-NH2; thioether N-8)', 73),
  ('CN(C)CCCC[C@@H]1NC(=O)[C@H](CC(C)(C)C)NC(=O)[C@@H]2C[C@@H](c3ccccc3)CN2C(=O)[C@H](Cc2ccccc2)N(C)C(=O)CSCCNC(=O)[C@H](Cc2ccc(-c3ccc(C(N)=O)cc3)cc2)NC(=O)[C@@H]2Cc3ccccc3CN2C(=O)[C@@H]2CC(F)(F)CN2C1=O (cyclo([Lys(Me2)][Pro(4,4-F2)][Tic][Bip(4''-CONH2)][NHCH2CH2SCH2CO][NMeF][Pro(trans-4-Ph)][tBuAla]))', 0.62),
  ('CN1C(=O)CSC[C@@H](C(N)=O)NC(=O)[C@H](Cc2ccc(C(N)=O)cc2)NC(=O)[C@@H]2Cc3ccccc3CN2C(=O)[C@@H]2CCCN2C(=O)[C@H](CCCCN)NC(=O)[C@H](Cc2ccc(O)cc2)NC(=O)[C@@H]2CCCN2C(=O)[C@@H]1Cc1ccccc1 ({CH2CO}-[NMeF]PYKP[Tic][Phe(4-CONH2)]C-NH2; thioether N-8)', 188),
  ('CN1C(=O)CSC[C@@H](C(N)=O)NC(=O)[C@H](Cc2ccc(C(N)=O)cc2)NC(=O)[C@@H]2Cc3ccccc3CN2C(=O)[C@@H]2CCCN2C(=O)[C@H](CCCNC(=N)N)NC(=O)[C@H](Cc2ccccc2)NC(=O)[C@@H]2CCCN2C(=O)[C@@H]1Cc1ccccc1 ({CH2CO}-[NMeF]PFRP[Tic][Phe(4-CONH2)]C-NH2; thioether N-8)', 253),
  ('CN1C(=O)CSC[C@@H](C(N)=O)NC(=O)[C@H](Cc2ccc(C(N)=O)cc2)NC(=O)[C@@H]2Cc3ccccc3CN2C(=O)[C@@H]2CCCN2C(=O)[C@H](CCCNC(=N)N)NC(=O)[C@H](Cc2ccc(O)cc2)NC(=O)[C@@H]2CCCN2C(=O)[C@@H]1Cc1ccccc1 ({CH2CO}-[NMeF]PYRP[Tic][Phe(4-CONH2)]C-NH2; thioether N-8)', 217),
  ('CN1C(=O)[C@H](Cc2ccc(C(N)=O)cc2)NC(=O)[C@@H]2Cc3ccccc3CN2C(=O)[C@@H]2CCCN2C(=O)[C@H](CCCNC(=N)N)NC(=O)[C@H](Cc2ccc(O)cc2)NC(=O)[C@@H]2CCCN2C(=O)[C@H](Cc2ccccc2)NC(=O)CSC[C@H]1C(N)=O ({CH2CO}-FPYRP[Tic][Phe(4-CONH2)][NMeC]-NH2; thioether N-8)', 8030),
  ('CC(C)C[C@@H]1NC(=O)[C@@H]2C[C@@H](C(F)(F)F)CN2C(=O)[C@H](Cc2ccccc2)NC(=O)CSC[C@@H](C(N)=O)NC(=O)[C@H](Cc2ccc(C(N)=O)cc2)NC(=O)[C@@H]2Cc3ccccc3CN2C(=O)[C@@H]2CCCN2C(=O)[C@H](CCCCN)NC1=O ({CH2CO}-F[X1]LKP[Tic][Phe(4-CONH2)]C-NH2; thioether N-8)', 18);

Request: Given CN1C(=O)CSC[C@@H](C(N)=O)NC(=O)[C@H](Cc2ccc(C(N)=O)cc2)NC(=O)[C@@H]2Cc3ccccc3CN2C(=O)[C@@H]2CCCN2C(=O)[C@H](CCCCN)NC(=O)[C@H](CC(C)(C)C)NC(=O)[C@@H]2CCCN2C(=O)[C@@H]1Cc1ccccc1 ({CH2CO}-[NMeF]P[tBuAla]KP[Tic][Phe(4-CONH2)]C-NH2; thioether N-8) , state its recorded IC50.
Response: 23

Request: Entry to check: CC(C)C[C@@H]1NC(=O)[C@@H]2CCCN2C(=O)[C@H](Cc2ccccc2)NC(=O)CSC[C@@H](C(N)=O)NC(=O)[C@H](Cc2ccc(C(N)=O)cc2)NC(=O)[C@@H]2Cc3ccccc3CN2C(=O)[C@@H]2CC(F)(F)CN2C(=O)[C@H](CCCCN)NC1=O ({CH2CO}-FPLK[Pro(4,4-F2)][Tic][Phe(4-CONH2)]C-NH2; thioether N-8)
Response: 13

Request: Also N=C(N)NCCC[C@@H]1NC(=O)[C@H](Cc2ccc(O)cc2)NC(=O)[C@@H]2CCCN2C(=O)[C@H](Cc2ccccc2)NC(=O)CSC[C@@H](C(N)=O)NC(=O)[C@H](Cc2ccc(C(N)=O)cc2)NC(=O)[C@@H]2Cc3ccccc3CN2C(=O)[C@@H]2CCCN2C1=O ({CH2CO}-FPYRP[Tic][Phe(4-CONH2)]C-NH2; thioether N-8) , if possible.
Response: 25
